Provide the recorded GI50 for the entries that follow.
- Test system: A498
- Procedure summary: NCI tumour cell line growth inhibition, 48 h
Activity calls are given as the source filed them. Rule as the data show it: active = GI50 up to about 1.1 µM and inactive = higher.

*Q* Query (compound): COc1ccc2nc3ccc(OC)cc3c(SCC3CO3)c2c1 (stereo not drawn) ; field requested: GI50
*A* 25.8 µM (inactive)

*Q* And what about the compound CC(C)(CN1CCCCC1)C(=O)CC(SCCN)c1ccc(Cl)cc1 (stereo not drawn) ?
*A* 2.32 µM (inactive)

*Q* Same question, CCOC(=O)c1c(N2CCOCC2)[nH]c(=O)c(C(c2ccc(OC)cc2)c2c(O)c(C(=O)OCC)c(N3CCOCC3)[nH]c2=O)c1O this time
*A* > 100 µM (inactive)

----------
- Tested on: OVCAR-3
- Procedure summary: NCI tumour cell line growth inhibition, 48 h
Activity calls are given as the source filed them. Rule as the data show it: active = GI50 up to about 1.1 µM and inactive = higher.
Exercise: state measured GI50 for each of the molecules provided.

*Q* Given CC[C@H](CC[C@@H](C)[C@H]1CC[C@H]2[C@@H]3CC=C4C[C@@H](O)CC[C@]4(C)[C@H]3CC[C@]12C)C(C)C , state its recorded GI50.
*A* > 100 µM (inactive)

*Q* Then this molecule: COc1cc(NC(C)=O)ccc1C(=O)NN1C(=O)/C(=C/c2ccco2)N=C1c1ccccc1
*A* > 50 µM (inactive)

*Q* // repeat for NC(=S)N/N=C/c1ccc(OC(=O)COc2ccccc2Cl)cn1 and report
*A* 23.2 µM (inactive)

----------
Exercise: for every item that follows, state its recorded GI50.
- System: MCF7
- Procedure summary: NCI tumour cell line growth inhibition, 48 h
Active and inactive are the calls of the source. Rule as the data show it: active = GI50 up to about 1.1 µM and inactive = higher.

*Q* Look at this compound and give its reported GI50. CCOC(=O)Cn1nc2ccc(Nc3c(C)[n+]([O-])c4cc(F)c(OCC)cc4[n+]3[O-])cc2n1
*A* > 100 µM (inactive)

*Q* What do you have for O=C1N(CN2CCOCC2)CN(CN2CCOCC2)C(=O)N1Cc1ccc(CN2C(=O)N(CN3CCOCC3)CN(CN3CCOCC3)C2=O)cc1 ?
*A* 38.9 µM (inactive)

*Q* Next compound up: CCN(CC)C(=S)Nc1ccc(-c2cc3ccc(O)cc3oc2=O)cc1
*A* > 10 µM (inactive)

*Q* Next: COCc1cc2c(s1)C(=O)C1=C(C2=O)C2(C=C(Br)C(=O)C(Br)=C2)CCN1
*A* 10.6 µM (inactive)

*Q* What do we get for C=C1C(=O)OC2CC(C)C3C4OC4C(O)C3(C)C(O)C12 (stereo not drawn) ?
*A* 20.7 µM (inactive)

*Q* Ok, now COc1ccc(-c2cc(-c3ccc(Nc4ccnc5cc(C(F)(F)F)ccc45)cc3)nc(N)c2C#N)cc1
*A* 35.9 µM (inactive)

*Q* Input O=C(OC1OC2COC(=O)c3cc(O)c(O)c(O)c3-c3c(cc(O)c(O)c3O)C(=O)OC3C2OC(=O)[C@@]24CC(=O)[C@@](O)(OC25C(=O)O[C@H]2[C@@H](O)CO[C@@]25O)C2(O)Oc5c(O)c(O)cc(c5C24)C(=O)OC13)c1cc(O)c(O)c(O)c1 (stereo partly drawn)
*A* 13.6 µM (inactive)

*Q* Consider next the compound O=C1c2cccc3cc4ccccc4c(c23)C(=O)N1CCNCCN1C(=O)c2cccc3cc4ccccc4c(c23)C1=O in the same way.
*A* 0.282 µM (active)

----------
- System: SF-268
- Procedure summary: NCI tumour cell line growth inhibition, 48 h
Calls of active or inactive are those of the source. No stated cut-off is given here; in the data, active = GI50 up to about 1.1 µM and inactive = higher.
Property measured: GI50

*Q* Fill in the blank: the reported GI50 of CCSc1nc(N2CCOCC2)c2cn[nH]c2n1 is ____.
*A* > 100 µM (inactive)

*Q* Item: Clc1ccc(Cn2cc(/C=N/n3cnnc3)c3ccccc32)cc1
*A* 45.9 µM (inactive)

*Q* Query COc1cc(O)ccc1C(=S)SC next
*A* 67.1 µM (inactive)

*Q* Param item: O=C(CCCn1cnc([N+](=O)[O-])n1)NCCCn1ccnc1[N+](=O)[O-]
*A* > 100 µM (inactive)

----------
- Test system: EKVX
- Procedure summary: NCI tumour cell line growth inhibition, 48 h
Active and inactive are the calls of the source. Rule as the data show it: active = GI50 up to about 1.1 µM and inactive = higher.
Property measured: GI50

*Q* Any idea what its GI50 is? The compound is CN1CCC/C1=C1/C(=O)N(c2ccccc2)N=C1c1ccc[nH]1
*A* > 100 µM (inactive)

*Q* Input NCCNC(=O)CN(CC(=O)O)C1CCCCC1N(CC(=O)O)CC(=O)O (configuration not stated)
*A* > 100 µM (inactive)

*Q* Same for CC1=CCC(O)C=CC(C)C(O)C(C)C=C(C)C(=O)c2c(O)c(C)cc3c2C(=O)C(N)=C(NC(=O)/C=C\C=C/C=CC(C)C(O)CC1=O)C3=O (configuration not stated)
*A* > 100 µM (inactive)

*Q* Lookup COc1c(C)cc(O)cc1C=O
*A* > 100 µM (inactive)

*Q* Now this one: O=C(/C=C(\O)C(=O)O)/C=C(\O)c1ccc(Cl)cc1
*A* > 100 µM (inactive)

*Q* What about this compound? CCCCN1C(=O)CC2[C@@H]3CCc4cc(OC)ccc4C3CC[C@]2(C)C1=O (some centres not stated)
*A* > 10 µM (inactive)

*Q* // next record Nn1c(Nc2ccc(S(N)(=O)=O)cc2)nnc(/C=C/c2c(O)ccc3ccccc23)c1=O
*A* 13.3 µM (inactive)

*Q* Thanks! And CCCCCCCC(CC(=O)O)OC(=O)CC(CCCCCCC)OC1OC(C)C(O)C(O)C1OC1OC(C)C(O)C(O)C1O (configuration not stated) ?
*A* > 100 µM (inactive)

*Q* Further, for CCC1(O)CC2CC(=O)OC2C1O (configuration not stated) ?
*A* > 100 µM (inactive)

*Q* Next compound: COc1ccc(N2C(=O)C3ON(C(C(N)=O)c4ccccc4)C(c4ccc(-c5ccccc5)cc4)C3C2=O)cc1 (configuration not stated)
*A* > 50 µM (inactive)

*Q* Also CC(=O)c1ccc(NC(=O)C(=O)C(C(=O)c2ccc(Cl)c(Cl)c2)C2OC(=O)c3ccccc32)cc1 (configuration not stated) ?
*A* 40 µM (inactive)

*Q* COc1cc2c(cc1[N+](=O)[O-])C(=O)C(Br)(Br)CCC2 , same question.
*A* 2.12 µM (inactive)

*Q* Follow-up item: COc1nc(N(C)C)nc2c1[n+](C)cn2C
*A* > 100 µM (inactive)

*Q* And for CCCCc1ccc(Nc2nc(O)c3ncn(COCCO)c3n2)cc1 ?
*A* > 100 µM (inactive)

*Q* Same question, [O-][n+]1c2c([n+]([O-])c3ccccc31)CCCCCCCCCC2 this time
*A* > 100 µM (inactive)

*Q* Would you mind doing CCc1ncnc2cc(OCC3CO3)c(OC)cc12 (configuration not stated) as well?
*A* 10.6 µM (inactive)

*Q* Param item: Clc1nc(Cl)c(Cl)c(Cl)n1
*A* 32.1 µM (inactive)

*Q* Let us now turn to Oc1c(Cl)c(Cl)c(O)c(-c2cnc(-c3ncc(-c4c(O)c(Cl)c(Cl)c(O)c4Cl)s3)s2)c1Cl
*A* 21.2 µM (inactive)

*Q* Further, for c1ccc2c(c1)CCN2CCc1c[nH]c2ccccc12 ?
*A* > 10 µM (inactive)

*Q* Same thing, different compound: O=C1OC(=O)C2C1C(c1ccccc1[N+](=O)[O-])C=C(c1ccco1)N2c1ccncc1 (configuration not stated)
*A* 15.2 µM (inactive)

*Q* And the next one, N#Cc1nc(COCc2ccccc2)oc1N ?
*A* > 100 µM (inactive)

*Q* Next record, please: CC(=O)c1ccc(O)c(CN(C2CCCCC2)C2CCCCC2)c1O
*A* > 100 µM (inactive)

*Q* Same again, this time with CC(=O)NC1=C(NCCN(C)C)C(=O)c2ccccc2C1=O
*A* 32.9 µM (inactive)

*Q* Follow-up entry: CCOC(=O)C(C)c1nc2cc(N3CCN(C)CC3)c(F)cc2[nH]c1=O (configuration not stated)
*A* > 100 µM (inactive)

*Q* Field entry: COC(=O)CNC(=O)CCSc1nnc(COc2ccc(Cl)cc2)n1-c1ccccc1
*A* 59.6 µM (inactive)

*Q* # repeat for COC(=O)C(CCC1CC(OC)N(C(=O)OCc2ccccc2)C1)/N=C/c1ccccc1 (configuration not stated)
*A* 55.2 µM (inactive)

*Q* Also check CC1c2[nH]c3ccccc3c2CCN1O (configuration not stated)
*A* > 100 µM (inactive)

*Q* Same lookup for N#CC(Cc1ccccc1)N(CCC1=CCCCC1)Cc1ccccc1 (configuration not stated) , please.
*A* 56.5 µM (inactive)

*Q* C=C(C)CNC(=S)N(N)c1ccc(OC)cc1 , same question.
*A* 82.2 µM (inactive)

*Q* Now consider N#CCCN(CCC#N)c1ccc(/C=C2\N=C(c3ccccc3)N(c3ccccn3)C2=O)cc1 .
*A* > 100 µM (inactive)

*Q* Consider next the compound O=C1c2cc([N+](=O)[O-])sc2C(=O)c2ccsc21 in the same way.
*A* 1.08 µM (active)

*Q* Then what about the compound O=c1[nH]c2ccc(C(F)(F)F)cc2nc1-c1ccccc1 ?
*A* > 100 µM (inactive)

*Q* Now consider O=S(=O)(O)c1ccc(/N=N/c2ccc(/N=N/c3c(O)ccc4ccccc34)c(S(=O)(=O)O)c2)cc1 .
*A* > 100 µM (inactive)

*Q* Please give the result for CC(C)OP(=O)(OC(C)C)/C(=N/Nc1ccccc1[N+](=O)[O-])NCCN/C(=N\Nc1ccccc1[N+](=O)[O-])P(=O)(OC(C)C)OC(C)C too.
*A* 28.9 µM (inactive)

*Q* Would you mind doing O=[N+]([O-])c1ccccc1S(=O)(=O)c1cc(Cl)cc2c1NCCC2 as well?
*A* > 100 µM (inactive)

*Q* Another compound to check: COc1ccc(OC)c2c1C(=O)C(Cl)=C(Cl)C2=O
*A* 8.3 µM (inactive)

*Q* Try the compound CC[N+](CC)(CCNCC(N)=O)CC(N)=O
*A* > 10 µM (inactive)
